Test system: human Factor 7 mRNA
assay name: Dose-dependent antisense inhibition of human Factor 7 in HepB3 cells, transfection with electroporation
Type: cell-based
measurement setup: 6.25 μM, 16 hours (Example 7, Table 15)
Protocol: The gapmers were also transfected via electroporation and their dose-dependent inhibition of human Factor 7 mRNA was measured. […] After a treatment period of approximately 16 hours, RNA was isolated from the cells and Factor 7 mRNA levels were measured by quantitative real-time PCR. […] Factor 7 mRNA levels were adjusted according to total RNA content, as measured by RIBOGREEN®. […]
In the oligonucleotide strings, read from the 5' end, every base follows the letter of its sugar. An asterisk marks phosphorothioate; unmarked linkages are phosphodiester. Other units and linkages are bracketed, terminal groups are in braces. A string of capitals states the bases alone. e = 2'-O-(2-methoxyethyl) (MOE); [5mC] = 5-methylcytosine; d = 2'-deoxy (DNA)
Measured percent inhibition of Factor 7 mRNA, relative to untreated control cells by item
attribute measured: percent inhibition of Factor 7 mRNA, relative to untreated control cells (%)

1) 422292 (antisense eG*eT*dT*d[5mC]*dT*dG*d[5mC]*dA*dG*dG*dA*dG*d[5mC]*dG*dG*e[5mC]*e[5mC]*eT*eA*eA) [compound 422292]
25
2) 422142 (antisense eG*eA*eG*eT*eT*d[5mC]*dT*dG*d[5mC]*dA*dG*dG*dA*dG*d[5mC]*eG*eG*e[5mC]*e[5mC]*eT) [compound 422142]
47
3) 422086 (antisense eT*eG*e[5mC]*eA*eT*dG*dG*dT*dG*dA*dT*dG*d[5mC]*dT*dT*e[5mC]*eT*eG*eA*eA) [compound 422086]
34
4) 422217 (antisense eG*eA*eG*dT*dT*d[5mC]*dT*dG*d[5mC]*dA*dG*dG*dA*dG*d[5mC]*dG*dG*e[5mC]*e[5mC]*eT) [compound 422217]
19

----------
Test system: human Factor 7 mRNA
assay name: Dose-dependent antisense inhibition of human Factor 7 in HepB3 cells, transfection with lipofectin
Format: cell-based
measurement setup: Example 5; HepB3, lipofectin, 6.25 nM, ~16 h
In the oligonucleotide strings, read from the 5' end, every base follows the letter of its sugar. An asterisk marks phosphorothioate; unmarked linkages are phosphodiester. Other units and linkages are bracketed, terminal groups are in braces. A string of capitals states the bases alone. e = 2'-O-(2-methoxyethyl) (MOE); [5mC] = 5-methylcytosine; d = 2'-deoxy (DNA)
Catalogue of percent inhibition of Factor 7 mRNA, 6.25 nM readings, one per entry.
attribute measured: percent inhibition of Factor 7 mRNA, 6.25 nM (%)

1. 416508 (antisense e[5mC]*eG*eA*eG*eT*dT*d[5mC]*dT*dG*d[5mC]*dA*dG*dG*dA*dG*e[5mC]*eG*eG*e[5mC]*e[5mC]) [compound 416508]
42
2. 416446 (antisense eG*eG*eT*e[5mC]*eA*d[5mC]*dT*dG*d[5mC]*dA*dG*dT*dA*d[5mC]*dT*eG*e[5mC]*eT*e[5mC]*eA) [compound 416446]
25
3. 416549 (antisense eG*eA*e[5mC]*eA*eA*dT*dG*dG*dT*d[5mC]*dA*dG*dG*dG*d[5mC]*eT*eG*eG*eT*eT) [compound 416549]
38
4. 416449 (antisense eT*eA*eG*eG*eT*dA*dT*dT*dT*dT*dT*d[5mC]*d[5mC]*dA*d[5mC]*eA*eT*eG*eG*eA) [compound 416449]
19
5. 407939 (antisense eT*eG*e[5mC]*eA*eG*d[5mC]*d[5mC]*d[5mC]*dG*dG*d[5mC]*dA*d[5mC]*d[5mC]*d[5mC]*eA*eG*e[5mC]*eG*eA) [compound 407939]
37
6. 416455 (antisense e[5mC]*eG*e[5mC]*e[5mC]*eG*dG*d[5mC]*dT*d[5mC]*dT*dG*d[5mC]*dT*d[5mC]*dA*eT*e[5mC]*e[5mC]*e[5mC]*e[5mC]) [compound 416455]
28
7. 407900 (antisense e[5mC]*e[5mC]*e[5mC]*e[5mC]*eA*d[5mC]*dA*dA*dT*dT*d[5mC]*dG*dG*d[5mC]*d[5mC]*eT*eT*eG*eG*eG) [compound 407900]
18
8. 416507 (antisense eG*eG*eT*eT*eA*d[5mC]*dT*dG*dA*dG*d[5mC]*dG*d[5mC]*dG*dG*eA*eA*eG*eA*eA) [compound 416507]
30

----------
Tested on: human Factor 7 mRNA
assay name: Antisense inhibition of human Factor 7 mRNA in HepB3 cells, lipofectin, 50 nM, real-time RT-PCR
Assay type: cell-based
measurement setup: HepB3 cells, lipofectin, 50 nM antisense oligonucleotide, approximately 24 hours, primer probe set RTS 2927, relative to untreated control
In the oligonucleotide strings, read from the 5' end, every base follows the letter of its sugar. An asterisk marks phosphorothioate; unmarked linkages are phosphodiester. Other units and linkages are bracketed, terminal groups are in braces. A string of capitals states the bases alone. e = 2'-O-(2-methoxyethyl) (MOE); [5mC] = 5-methylcytosine; d = 2'-deoxy (DNA)
attribute measured: % Inhibition of human Factor 7 mRNA levels (%)

1. 416500 (antisense e[5mC]*eT*eG*eA*eA*d[5mC]*dA*d[5mC]*d[5mC]*d[5mC]*d[5mC]*dA*dG*d[5mC]*dT*eG*eA*eG*eA*eG) [compound 416500]
1
2. 416439 (antisense eG*eT*e[5mC]*e[5mC]*eT*dT*dG*d[5mC]*dA*dG*dG*dA*dG*d[5mC]*d[5mC]*e[5mC]*e[5mC]*e[5mC]*eA*eT) [compound 416439]
56
3. 416477 (antisense e[5mC]*eA*eG*e[5mC]*e[5mC]*dT*dG*dA*dG*dG*d[5mC]*d[5mC]*dA*dG*d[5mC]*eA*eG*eA*eT*e[5mC]) [compound 416477]
74

----------
System: human Factor 7 mRNA
assay name: Dose-dependent antisense inhibition of human Factor 7 in HepB3 cells, transfection with lipofectin
Type: cell-based
measurement setup: 100 nM, lipofectin, HepB3 cells, 16 hours
In the oligonucleotide strings, read from the 5' end, every base follows the letter of its sugar. An asterisk marks phosphorothioate; unmarked linkages are phosphodiester. Other units and linkages are bracketed, terminal groups are in braces. A string of capitals states the bases alone. e = 2'-O-(2-methoxyethyl) (MOE); [5mC] = 5-methylcytosine; d = 2'-deoxy (DNA)
attribute measured: percent inhibition of Factor 7 mRNA, relative to untreated control cells (%)

1) 422215 (antisense eG*eT*eT*d[5mC]*dT*dG*d[5mC]*dA*dG*dG*dA*dG*d[5mC]*dG*dG*d[5mC]*d[5mC]*eT*eA*eA) [compound 422215]
82
2) 407939 (antisense eT*eG*e[5mC]*eA*eG*d[5mC]*d[5mC]*d[5mC]*dG*dG*d[5mC]*dA*d[5mC]*d[5mC]*d[5mC]*eA*eG*e[5mC]*eG*eA) [compound 407939]
83
3) 422087 (antisense e[5mC]*eA*eT*eG*e[5mC]*dA*dT*dG*dG*dT*dG*dA*dT*dG*d[5mC]*eT*eT*e[5mC]*eT*eG) [compound 422087]
90

----------
System: human Factor 7 mRNA
assay name: Dose-dependent antisense inhibition of human Factor 7 in HepB3 cells, transfection with lipofectin
Format: cell-based
measurement setup: Example 2; HepB3, lipofectin, 50.0 nM, ~16 h
Description: Cells were plated at a density of 4,000 cells per well and treated with lipofectin reagent with 3.125 nM, 6.25 nM, 12.5 nM, 25 nM, 50 nM, and 100 nM concentrations of antisense oligonucleotide, as indicated in Table 3. After a treatment period of approximately 16 hours, RNA was isolated from the cells and Factor 7 mRNA levels were measured by real-time RT-PCR, as described herein. […] Factor 7 mRNA levels were adjusted according to total RNA content as measured by RIBOGREEN®. […]
In the oligonucleotide strings, read from the 5' end, every base follows the letter of its sugar. An asterisk marks phosphorothioate; unmarked linkages are phosphodiester. Other units and linkages are bracketed, terminal groups are in braces. A string of capitals states the bases alone. e = 2'-O-(2-methoxyethyl) (MOE); [5mC] = 5-methylcytosine; d = 2'-deoxy (DNA)
attribute measured: percent inhibition of Factor 7 mRNA, 50.0 nM (%)

1) 407936 (antisense eG*eG*e[5mC]*eA*eT*dT*d[5mC]*dG*d[5mC]*d[5mC]*dA*d[5mC]*d[5mC]*dA*dT*eG*e[5mC]*eA*eT*eG) [compound 407936]
91
2) 407939 (antisense eT*eG*e[5mC]*eA*eG*d[5mC]*d[5mC]*d[5mC]*dG*dG*d[5mC]*dA*d[5mC]*d[5mC]*d[5mC]*eA*eG*e[5mC]*eG*eA) [compound 407939]
92
3) 407643 (antisense e[5mC]*eA*e[5mC]*eA*e[5mC]*dA*dT*dG*dG*dA*dG*dT*d[5mC]*dA*dG*e[5mC]*eA*eT*e[5mC]*eG) [compound 407643]
92
4) 407900 (antisense e[5mC]*e[5mC]*e[5mC]*e[5mC]*eA*d[5mC]*dA*dA*dT*dT*d[5mC]*dG*dG*d[5mC]*d[5mC]*eT*eT*eG*eG*eG) [compound 407900]
94
5) 407594 (antisense e[5mC]*e[5mC]*eT*eG*e[5mC]*dA*dG*d[5mC]*d[5mC]*dA*dG*dG*d[5mC]*dA*dG*e[5mC]*e[5mC]*e[5mC]*eT*eG) [compound 407594]
84
